test: in vivo; conditions: mouse, po
assay.readout: LD50 at 72 h (mg/kg)
Could you give me the number in mg/kg? Just the number is fine.

// returns reported LD50 at 72 h for input CCC(C)(C)c1ccc(C(=O)c2ccccc2F)cc1
2000

GET /values?readout=LD50 at 72 h&item= CC(C)Cc1ccc(C(=O)c2ccccc2)cc1
2000

// query LD50 at 72 h value for entry CCCCc1ccc(C(=O)c2ccccc2Br)cc1
1500

Field request: LD50 at 72 h | item: CC(C)(C)c1ccc(C(=O)c2ccccc2F)cc1
750

Give the measured LD50 at 72 h of Cc1ccc(C(=O)c2ccccc2I)c(C)c1 .
2000

What value of LD50 at 72 h has been recorded for this entry: Cc1ccc(C(=O)c2ccccc2F)c(C)c1
500

Given the entry CCCCc1ccc(C(=O)c2ccc(F)cc2)cc1 , report its measured LD50 at 72 h.
5000

If you can, please state the reported LD50 at 72 h value of CCCCCCCCc1ccc(C(=O)c2ccc(Br)cc2)cc1 .
2500

Name the reported LD50 at 72 h value associated with the compound Cc1cc(C)c(C(=O)c2cccc(I)c2)c(C)c1
1500

Item CCCc1ccc(C(=O)Cc2ccccc2)cc1 has what recorded LD50 at 72 h?
8000

Sample CCCCCCCCc1ccc(C(=O)c2cccc(I)c2)cc1 — what was its LD50 at 72 h?
5000

Sample CCCc1ccc(C(=O)c2cccc(Cl)c2)cc1 — what was its LD50 at 72 h?
1000

Quick one: LD50 at 72 h of CCCCCCCCc1ccc(C(=O)c2ccccc2Cl)cc1 ?
3000

Item Cc1cc(C)c(C(=O)c2ccccc2Br)c(C)c1 has what recorded LD50 at 72 h?
1000
